target: Geranylgeranyl transferase type-2 (Homo sapiens) (UniProt P53611+Q92696); assay: Inhibition of GGtase-2 in human cells assessed as minimum effective dose causing => 20% decrease in Rab6 level after 48 hrs by immunoblot analysis; format: cell-based

compound	LED
O=C(O)C(Cn1cnc2ccccc21)P(=O)(O)O (centres undefined)	1 mM
O=P(O)(O)C(Cn1cnc2cc(F)c(F)cc21)P(=O)(O)O	0.5 mM
O=P(O)(O)C(Cn1cnc2ccccc21)P(=O)(O)O	0.025 mM
CC(Cn1cnc2ccccc21)(C(=O)O)P(=O)(O)O (centres undefined)	5 mM

---

The following compounds are shown together with reported IC50 values.
Target: Geranylgeranyl pyrophosphate synthase (Homo sapiens, UniProt O95749)
Sequence (O95749 whole entry): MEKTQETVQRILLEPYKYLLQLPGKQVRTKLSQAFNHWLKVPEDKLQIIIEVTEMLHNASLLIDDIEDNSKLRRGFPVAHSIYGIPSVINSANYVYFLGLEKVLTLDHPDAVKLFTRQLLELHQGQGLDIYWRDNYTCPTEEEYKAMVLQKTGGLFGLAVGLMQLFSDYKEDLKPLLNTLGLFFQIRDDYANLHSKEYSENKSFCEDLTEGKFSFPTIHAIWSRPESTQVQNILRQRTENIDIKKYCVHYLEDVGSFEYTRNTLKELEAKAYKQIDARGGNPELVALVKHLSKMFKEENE
testReadout: IC50

compound	experimentalTarget	testReadout	valueReported
O=C(O)C(Cn1cnc2cc(F)c(F)cc21)P(=O)(O)O (centres undefined)	Geranylgeranyl pyrophosphate synthase (Homo sapiens, UniProt O95749)	IC50	> 100 µM
CC(Cn1cnc2ccccc21)(C(=O)O)P(=O)(O)O (centres undefined)	Geranylgeranyl pyrophosphate synthase (Homo sapiens, UniProt O95749)	IC50	> 100 µM
O=C(O)C(Cn1cnc2ccccc21)P(=O)(O)O (centres undefined)	Geranylgeranyl pyrophosphate synthase (Homo sapiens, UniProt O95749)	IC50	> 100 µM
O=P(O)(O)C(Cn1cnc2cc(F)c(F)cc21)P(=O)(O)O	Geranylgeranyl pyrophosphate synthase (Homo sapiens, UniProt O95749)	IC50	87 µM

---

biological target: Protein farnesyltransferase (Rattus norvegicus, UniProt Q02293+Q04631); test: Inhibition of recombinant rat FTase expressed in Escherichia coli using dansyl-GCVLS as substrate after 1.5 hrs by spectrofluorimetric analysis
Consider the following compounds and their measured IC50 readings.
testReadout: IC50 (µM)

compound	unitsLabel	qualifierSymbol	valueReported
O=P(O)(O)C(Cn1cnc2ccccc21)P(=O)(O)O	µM	=	830
O=C(O)C(Cn1cnc2cc(F)c(F)cc21)P(=O)(O)O (stereo not drawn)	µM	=	450
CC(Cn1cnc2ccccc21)(C(=O)O)P(=O)(O)O (stereo not drawn)	µM	>	1000
O=C(O)C(Cn1cnc2ccccc21)P(=O)(O)O (stereo not drawn)	µM	=	125
CC(Cn1cnc2ccccc21)(P(=O)(O)O)P(=O)(O)O	µM	>	1000
O=P(O)(O)C(Cn1cnc2cc(F)c(F)cc21)P(=O)(O)O	µM	=	340
Cc1cc2ncn(CC(P(=O)(O)O)P(=O)(O)O)c2cc1C	µM	>	1000
Cc1cc2ncn(CC(C(=O)O)P(=O)(O)O)c2cc1C (stereo not drawn)	µM	>	1000

---

// IC50 lookup, one value per entry
biological target: Geranylgeranyl transferase type-2 (Rattus norvegicus, UniProt Q08602+Q08603); assay: Inhibition of recombinant rat RabGGTase expressed in Escherichia coli using Rab7 as substrate and [3H]geranylgeranyl pyrophosphate after 20 mins by liquid scintillation analysis
Sequence (Q08603 whole entry): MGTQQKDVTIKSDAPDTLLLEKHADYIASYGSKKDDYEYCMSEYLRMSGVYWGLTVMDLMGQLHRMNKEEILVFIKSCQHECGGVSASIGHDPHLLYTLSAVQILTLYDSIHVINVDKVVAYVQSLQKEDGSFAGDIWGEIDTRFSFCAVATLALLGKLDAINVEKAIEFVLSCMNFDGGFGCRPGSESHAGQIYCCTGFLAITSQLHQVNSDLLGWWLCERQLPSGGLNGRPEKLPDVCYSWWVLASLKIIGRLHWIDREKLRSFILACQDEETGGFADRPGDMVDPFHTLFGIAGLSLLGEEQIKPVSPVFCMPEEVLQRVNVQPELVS
Sequence (Q08602 whole entry): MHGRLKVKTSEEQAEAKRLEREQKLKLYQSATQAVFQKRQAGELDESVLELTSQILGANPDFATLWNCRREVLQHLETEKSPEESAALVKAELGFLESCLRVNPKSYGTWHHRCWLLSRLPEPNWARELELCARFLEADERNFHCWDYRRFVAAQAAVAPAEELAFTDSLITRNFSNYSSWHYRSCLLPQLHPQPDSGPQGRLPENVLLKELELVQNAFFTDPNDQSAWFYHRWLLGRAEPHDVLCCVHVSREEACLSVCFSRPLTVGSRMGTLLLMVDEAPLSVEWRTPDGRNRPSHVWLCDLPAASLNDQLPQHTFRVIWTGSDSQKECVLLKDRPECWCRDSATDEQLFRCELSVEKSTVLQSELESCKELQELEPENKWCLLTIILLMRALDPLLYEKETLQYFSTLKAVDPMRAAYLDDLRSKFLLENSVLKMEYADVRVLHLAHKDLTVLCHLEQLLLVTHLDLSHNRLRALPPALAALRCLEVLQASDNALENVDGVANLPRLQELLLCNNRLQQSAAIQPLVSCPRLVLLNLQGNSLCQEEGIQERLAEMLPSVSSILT
testReadout: IC50 (µM)

molecule	experimentalTarget	qualifierSymbol	valueReported
O=C(O)C(Cn1cnc2ccccc21)P(=O)(O)O (stereo not drawn)	Geranylgeranyl transferase type-2 (Rattus norvegicus, UniProt Q08602+Q08603)	=	198
Cc1cc2ncn(CC(C(=O)O)P(=O)(O)O)c2cc1C (stereo not drawn)	Geranylgeranyl transferase type-2 (Rattus norvegicus, UniProt Q08602+Q08603)	>	1000
O=P(O)(O)C(Cn1cnc2cc(F)c(F)cc21)P(=O)(O)O	Geranylgeranyl transferase type-2 (Rattus norvegicus, UniProt Q08602+Q08603)	=	738
CC(Cn1cnc2ccccc21)(C(=O)O)P(=O)(O)O (stereo not drawn)	Geranylgeranyl transferase type-2 (Rattus norvegicus, UniProt Q08602+Q08603)	=	810
O=C(O)C(Cn1cnc2cc(F)c(F)cc21)P(=O)(O)O (stereo not drawn)	Geranylgeranyl transferase type-2 (Rattus norvegicus, UniProt Q08602+Q08603)	>	1000
CC(Cn1cnc2ccccc21)(P(=O)(O)O)P(=O)(O)O	Geranylgeranyl transferase type-2 (Rattus norvegicus, UniProt Q08602+Q08603)	>	1000
Cc1cc2ncn(CC(P(=O)(O)O)P(=O)(O)O)c2cc1C	Geranylgeranyl transferase type-2 (Rattus norvegicus, UniProt Q08602+Q08603)	=	534
O=P(O)(O)C(Cn1cnc2ccccc21)P(=O)(O)O	Geranylgeranyl transferase type-2 (Rattus norvegicus, UniProt Q08602+Q08603)	>	1000
